Kd: recorded values
- system under test: T1, Clostridium difficile toxin A (Clostridioides difficile …, UniProt P16154)
- T1 construct: also called TcdA
- method: SPR
- reported conditions: both partners purified
Number only, in nM; omit the unit.

[
  {
    "binder": "A26.8 VHH T103M (VHH, source: E. coli TG1, periplasmic extract, purified (IMAC, SEC)) VHH: QVKLEESGGGLVQAGGSLRLSCAASERTFSRYPVAWFRQAPGAEREFVAVISSTGTSTYYADSVKGRFTISRDNAKVTVYLQMNNLKREDTAVYFCAVNSQRMRLQDPNEYDYWGQGTQVTVSS",
    "Kd / nM": 13.7
  }
]

Task: For the binder shown here, A26.8 VHH Q106W (VHH, source: E. coli TG1, periplasmic extract, purified (IMAC, SEC)) VHH: QVKLEESGGGLVQAGGSLRLSCAASERTFSRYPVAWFRQAPGAEREFVAVISSTGTSTYYADSVKGRFTISRDNAKVTVYLQMNNLKREDTAVYFCAVNSQRTRLWDPNEYDYWGQGTQVTVSS , give the reported Kd.
Result: 1480
